A collection of binders and their measured log10 kon
Target: T1, cynomolgus monkey (cyno) complement protein C5 (cynomolgus monkey, UniProt A0A2K5U1T1 19-1676)
T1 construct: also called cC5; cyno C5
Assay: SPR (Biacore)
Base-10 log of kon, unit M⁻¹ s⁻¹.

Item under review: LCP0115 (VHH, llama anti-C5 VHH, tested as VHH-His fusion; not shown: His-tag) VHH: EVQLVESGGGLVQAGGSLRLSCAASGRTFSGILSPYAVGWFRQAPGKGREFVSTITSGGSAIYTDSVKGRFTLSRDNAKDTVYLQMNSLKPEDTAVYYCAVRTRRYGSNLGEVPQENEYGYWGQGTQVTVSS . Reported log10 kon?
4.98

Item under review: LCP0095 (VHH, llama anti-C5 VHH, tested as VHH-His fusion; not shown: His-tag) VHH: EVQLVESGGGLVQAGGSLRLSCTASGRTISTTVMAWFRQAPGKEREFVAADHWGDAGTVYADSVKGRFTISRDNAKNTVYLQMNYLKPEDTSVYYCAARPPTYVGTSRDSRAYDYWGQGTQVTVSS . Reported log10 kon?
5.66

New cases:
Item under review: LCP0146 (VHH, llama anti-C5 VHH, tested as VHH-His fusion; not shown: His-tag) VHH: EVQLVESGGGLVQAGGSLRLSCAASGRAFSDYAMAWFRQAPGKEREFVAGIGWSGGDTLYADSVRGRFTNSKDNAKNRMSLQMNSLKPEDTAVYYCAARQGQYIYSSMRSDSYDYWGQGTQVTVSS . Reported log10 kon?
6.42

Item under review: LCP0296 (VHH, llama anti-C5 VHH, tested as VHH-His fusion; not shown: His-tag) VHH: EVQLVESGGGVVQAGDSLTLTCTAPVGTISDYGMGWFRQAPGKEREFVASISWGGMWTDYADSVKGRFTISRDNDKNAVYLRMNSLNAEDTAVYYCGRGRMYRGIGNSLAQPKSYGYWGQGTQVTVSS . Reported log10 kon?
4.84

Item under review: LCP0143 (VHH, llama anti-C5 VHH, tested as VHH-His fusion; not shown: His-tag) VHH: EVQLVESGGGLVQAGGSLRLSCAAPEMGATINVMAWYRQAPGKQRELVARLPLDNNIDYGDFAKGRFTISRDITRNTVYLQMNNLKPDDTAVYYCNVLLSRQINGAYVHWGQGTQVTVSS . Reported log10 kon?
5.87

Item under review: LCP0136 (VHH, llama anti-C5 VHH, tested as VHH-His fusion; not shown: His-tag) VHH: EVQLVESGGGLVQPGESLRLSCAISGFAFTDVGMSWVRQAPGKGLEWVSSISSGSSITTYSDSVKGRFTISRDNARNTLFLQMNSLKPEDTAVYYCGRYYCTGLGCHPRRDSALWGQGTQVTVSS . Reported log10 kon?
5.90

Item under review: LCP0302 (VHH, llama anti-C5 VHH, tested as VHH-His fusion; not shown: His-tag) VHH: EVQLVESGGGLVQAGGSLRLSCAASGRTFSGILSAYAVGWFRQAPGKEREFVSTITSGGSTLSADSVKGRFTLSRDNAKDTVYLQMNSLKPEDTAVYYCAVRTWPYGSNRGEVPTENEYGHWGQGTQVTVSS . Reported log10 kon?
5.01

Item under review: LCP0123 (VHH, llama anti-C5 VHH, tested as VHH-His fusion; not shown: His-tag) VHH: EVQLVESGGGLVQAGGSLTLSCAMSGGTRPFEDYVMAWFRQATGKEREFVATITWMGETTYYKDSVNGRFAISRDNAENTVALQMNSLEPEDTAVYFCAAHSRSSFSTSGGRYNPRPTEYDYWGQGTQVTVSS . Reported log10 kon?
5.00
